# Target entity: serotonin transporter (SERT) (Homo sapiens)
# Construct: expressed in transfected cells; host or cells: HEK-293
# Sequence (P31645 whole entry, species assumed): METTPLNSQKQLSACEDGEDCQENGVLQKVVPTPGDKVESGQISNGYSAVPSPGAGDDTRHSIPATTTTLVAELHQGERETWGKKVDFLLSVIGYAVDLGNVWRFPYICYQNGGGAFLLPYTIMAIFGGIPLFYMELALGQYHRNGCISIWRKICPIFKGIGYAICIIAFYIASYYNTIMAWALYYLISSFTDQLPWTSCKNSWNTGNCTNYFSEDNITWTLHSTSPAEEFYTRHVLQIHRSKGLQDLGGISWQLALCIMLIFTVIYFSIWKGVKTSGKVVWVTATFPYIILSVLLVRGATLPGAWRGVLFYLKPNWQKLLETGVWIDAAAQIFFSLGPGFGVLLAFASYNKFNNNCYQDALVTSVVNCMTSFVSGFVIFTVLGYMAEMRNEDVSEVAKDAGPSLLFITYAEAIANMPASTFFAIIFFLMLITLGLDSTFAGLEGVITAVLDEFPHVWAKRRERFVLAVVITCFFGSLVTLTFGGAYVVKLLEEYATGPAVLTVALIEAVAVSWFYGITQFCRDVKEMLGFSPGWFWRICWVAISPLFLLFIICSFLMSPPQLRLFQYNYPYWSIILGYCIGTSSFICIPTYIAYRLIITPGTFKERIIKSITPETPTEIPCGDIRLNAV
# Method: Serotonin reuptake inhibition, [3H]-5-HT, HEK-293 cells transfected with 5-HT transporter cDNA
# Format: cell-based
# Assay conditions: compound 1 μM; [3H]-5-HT; relative to control without compound = 100%; lower value = more inhibition
Field: Triple reuptake inhibition (Ratio %) SERT. Provide a value for each of the molecules that follow.
In your response, put the unit directly after the numeric value.

molecule="CCCCOc1ccc(S(=O)(=O)NCCN2CCC(c3c[nH]c4ccccc34)CC2)cc1 [Example 6]" measured_result=29.04%
molecule="O=S(=O)(NCCN1CCN(c2ccc(Cl)cc2)CC1)c1ccc(-c2ccccc2)cc1 [Example 52]" measured_result=47.19%
molecule="O=S(=O)(NCCCN1CCN(c2ccc(Cl)cc2)CC1)c1ccc2ccccc2n1 [Example 73]" measured_result=47.19%

Respond only with Triple reuptake inhibition (Ratio %) SERT recorded for O=S(=O)(NCCCN1CCC(CCCc2ccccc2)CC1)c1ccc(-c2ccccc2)cc1 [Example 75]
61.48%
